Values compiled from patent US12077503B2.

test system: ragweed (common ragweed, Ambrosia elatior); assay: Test A postemergence; format: in vivo; details: 500 g ai/ha, postemergence; visual injury, 0 to 100 scale (0 no effect, 100 complete control), approx. 10 d
Measured Plant response rating, Ragweed, listed per entry for reference.
Reported property: Plant response rating, Ragweed

{"columns": ["Molecule", "Observed value"],
 "data": [
  ["CCC1(C(=O)Nc2cccc(F)c2F)C(=O)N(C)CC1c1cccc(C(F)(F)F)c1 (stereo not shown)", 0],
  ["Cc1ccc(C2CNC(=O)C2C(=O)Nc2ccc(F)cc2F)cc1C(F)(F)F (racemic)", 0],
  ["Cc1ccc(C2CN(C)C(=O)C2C(=O)Nc2ccc(F)cc2F)cc1 (stereo not shown)", 20],
  ["CN1CC(c2cc(F)cc(F)c2)C(C(=O)Nc2ccc(F)cc2F)C1=O (stereo not shown)", 20],
  ["Cc1ccc([C@H]2CN(C)C(=O)[C@@H]2C(=O)Nc2ccccc2[S+](C)[O-])cc1Cl (stereo partly shown)", 40],
  ["CN1CC(c2ccc(C(C)(F)F)cc2)C(C(=O)Nc2ccccc2S(C)(=O)=O)C1=O (stereo not shown)", 30],
  ["Cc1cccc(C2CN(C)C(=O)C2C(=O)Nc2ccccc2F)c1 (stereo not shown)", 0],
  ["CN1CC(c2cc(F)cc(F)c2)C(C(=O)Nc2cccc(F)c2F)C1=O (stereo not shown)", 40],
  ["CC(C)Oc1cccc(C2CN(C)C(=O)C2C(=O)Nc2ccccc2S(C)(=O)=O)c1 (stereo not shown)", 0],
  ["CN1CC(c2cc(F)cc(F)c2)C(C(=O)Nc2cccc3c2CCC3)C1=O (stereo not shown)", 0],
  ["Cc1ccc(C2CN(C)C(=O)C2C(=O)Nc2ccccc2S(C)(=O)=O)cc1 (stereo not shown)", 40],
  ["Cc1ccc(C2CNC(=O)C2C(=O)Nc2ccccc2F)cc1C(F)(F)F (racemic)", 20],
  ["O=C1NCC(c2csc(Br)c2)C1C(=O)Nc1ccccc1F (stereo not shown)", 30]
]}
